Assay: In vitro inhibition of recombinant Mycobacterium smegmatis Arylamine N-Acetyltransferase (MSNAT) -catalyzed acetylation of isoniazid (INH)
Parameters: species or system Mycolicibacterium smegmatis
measured metric: IC50 (µM)

> print(dat)
                              smiles.record  display.unit  experimental.value
1  O=C1NC(=O)/C(=C2\CN(CCC3CCCCC3)S(=O)(=O)c3ccccc32)S1            µM                  82
2  O=C1NC(=O)/C(=C2\CN(Cc3ccc(/C=C/c4ccccc4)cc3)S(=O)(=O)c3ccccc32)S1            µM                  29
3  CCC(CC)CN1C/C(=C2/SC(=O)NC2=O)c2ccccc2S1(=O)=O            µM                  92

P = O=C1NC(=O)/C(=C2\CN(Cc3ccc(Br)cc3)S(=O)(=O)c3ccccc32)S1
Q = O=C1NC(=O)/C(=C2\CN(Cc3ccc(Cl)s3)S(=O)(=O)c3ccccc32)S1
Endpoint returns the identifier whose IC50 is numerically larger, either P or Q . Please indicate the selected item by its label.
P
(P: 65 µM, Q: 33 µM)

1 = CCCCCCCCCCN1C/C(=C2/SC(=O)NC2=O)c2ccccc2S1(=O)=O
2 = O=C1NC(=O)/C(=C2\CN(CC3CCCCC3)S(=O)(=O)c3ccccc32)S1
# query: argmin of IC50 over 1 and 2 Write the label of whichever entry you select.
1
(1: 22 µM, 2: 205 µM)

A = CCCCCCCCN1C/C(=C2/SC(=O)NC2=O)c2ccccc2S1(=O)=O
B = O=C1NC(=O)/C(=C2\CN(Cc3ccc(-c4ccccc4)cc3)S(=O)(=O)c3ccccc32)S1
Identify the entry with the smaller IC50: A or B . Record your answer as the label of the chosen record.
B
(B: 20 µM, A: 61 µM)
